- study system: β-lactamase from E. coli RTEM (Escherichia coli)
- Construct: there is obtained a clear crude extract which can be used as the enzyme source; endogenous in cells; host or cells: E. coli RTEM, sonicated cells, clear crude extract
- Sequence (P62593 24-286 limits assumed): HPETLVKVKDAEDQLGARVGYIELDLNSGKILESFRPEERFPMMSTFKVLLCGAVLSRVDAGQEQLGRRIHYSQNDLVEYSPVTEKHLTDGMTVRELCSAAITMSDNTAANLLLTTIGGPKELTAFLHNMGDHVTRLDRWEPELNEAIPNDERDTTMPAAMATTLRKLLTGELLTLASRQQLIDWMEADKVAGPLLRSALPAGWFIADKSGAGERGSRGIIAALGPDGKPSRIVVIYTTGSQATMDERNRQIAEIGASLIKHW
- measurement notes: β-lactamase inhibition, nitrocefin cleavage, isolated enzyme from E. coli RTEM
- Format: biochemical
- reported conditions: in the presence of an esterase; 15 min pre-incubation; nitrocefin substrate, 37° C., pH 7.0
readout type: IC50 (nM)
Use nM as the unit, but write only the number.

INPUT: Need IC50 of CC(C=C1C(=O)N2[C@@H]1SC(C)(C)[C@@H]2C(=O)OCOC(=O)C(C)(C)C)=NO , thanks.
OUTPUT: 2

###

- study system: β-lactamase from Proteus vulgaris 1028
- measurement notes: β-lactamase inhibition, nitrocefin cleavage, isolated enzyme from P. vulgaris 1028
- Format: biochemical
- reported conditions: in the presence of an esterase; 15 min pre-incubation; nitrocefin substrate, 37° C., pH 7.0; read-out: β-Lactamase inhibition IC50, P. vulgaris 1028, +E
readout type: pIC50
Scale: negative log10 of molar concentration, which is what pIC50 denotes.

INPUT: Request - read-out pIC50 | tested on β-lactamase from Proteus vulgaris 1028 | compound CC(C=C1C(=O)N2[C@@H]1SC(C)(C)[C@@H]2C(=O)OCOC(=O)C(C)(C)C)=NO
OUTPUT: 7.46

###

- study system: β-lactamase from E. coli RTEM (Escherichia coli)
- Construct: there is obtained a clear crude extract which can be used as the enzyme source; endogenous in cells; host or cells: E. coli RTEM, sonicated cells, clear crude extract
- measurement notes: β-lactamase inhibition, nitrocefin cleavage, isolated enzyme from E. coli RTEM
- Format: biochemical
- reported conditions: in the absence of an esterase; 15 min pre-incubation; nitrocefin substrate, 37° C., pH 7.0
readout type: IC50 (µM)
Give the value in µM but do not write µM after it.

INPUT: Given the entry CC(C=C1C(=O)N2[C@@H]1SC(C)(C)[C@@H]2C(=O)OCOC(=O)C(C)(C)C)=NO , report its measured IC50.
OUTPUT: 0.06

###

- study system: β-lactamase from Proteus vulgaris 1028
- measurement notes: β-lactamase inhibition, nitrocefin cleavage, isolated enzyme from P. vulgaris 1028
- Type: biochemical
- reported conditions: in the absence of an esterase; 15 min pre-incubation; nitrocefin substrate, 37° C., pH 7.0; read-out: β-Lactamase inhibition IC50, P. vulgaris 1028, -E
readout type: IC50 (nM)
The answer is to be given in nM; state only the numeric part.

INPUT: Entry CC(C=C1C(=O)N2[C@@H]1SC(C)(C)[C@@H]2C(=O)OCOC(=O)C(C)(C)C)=NO : reported IC50 = ?
OUTPUT: 460
